Reference source: patent US7462600B2

- Test system: Haemophilus influenzae 1218
- ASSAY PROTOCOL: MIC, microtiter broth dilution (NCCLS M100-S14), H. influenzae 1218 (susceptible)
- Type: cell-based
- MEASUREMENT SETUP: Haemophilus influenzae 1218
Recorded measurements of MIC H. influenzae 1218, one per entry
Write your answer as a measured quantity: the number, then the unit.

Example results:
{"MOLECULE": "CCC1OC(=O)C(C)C(=O)C(C)C(OC2OC(C)CC(N(C)C)C2O)C(C)(OC)CC(C)C(=O)C(C)C2N(C3CN(Cc4cc(=O)[nH]c5ccc(Cl)cc45)C3)C(=O)OC12C (stereo not shown)", "TEST TARGET": "Haemophilus influenzae 1218", "MIC H. influenzae 1218": "0.5 µg/mL"}
{"MOLECULE": "CCC1OC(=O)C(C)C(=O)C(C)C(OC2OC(C)CC(N(C)C)C2O)C(C)(OC)CC(C)C(=O)C(C)C2N(C3CN(Cc4ccnc5c4ncn5C)C3)C(=O)OC12C (stereo not shown)", "TEST TARGET": "Haemophilus influenzae 1218", "MIC H. influenzae 1218": "2 µg/mL"}
{"MOLECULE": "CC[C@H]1OC(=O)[C@H](C)[C@@H](OC(=O)N2CCCC2C)[C@H](C)[C@@H](O[C@@H]2O[C@H](C)C[C@H](N(C)C)[C@H]2O)[C@](C)(OC)C[C@@H](C)C(=O)[C@H](C)[C@H]2N(CC3CN(Cc4c[nH]c5ncccc45)C3)C(=O)O[C@]12C (stereo partly shown)", "TEST TARGET": "Haemophilus influenzae 1218", "MIC H. influenzae 1218": "2 µg/mL"}
{"MOLECULE": "CCC1OC(=O)C(C)C(=O)C(C)C(OC2OC(C)CC(N(C)C)C2O)C(C)(OC)CC(C)C(=O)C(C)C2N(C3CN(S(=O)(=O)c4ccc(F)c(C#N)c4)C3)C(=O)OC12C (stereo not shown)", "TEST TARGET": "Haemophilus influenzae 1218", "MIC H. influenzae 1218": "1 µg/mL"}
{"MOLECULE": "CCC1OC(=O)C(C)C(=O)C(C)C(OC2OC(C)CC(N(C)C)C2O)C(C)(OC)CC(C)C(=O)C(C)C2N(C3CN(S(=O)(=O)c4ccc(-c5ccon5)s4)C3)C(=O)OC12C (stereo not shown)", "TEST TARGET": "Haemophilus influenzae 1218", "MIC H. influenzae 1218": "0.5 µg/mL"}

Prompt: Reported MIC H. influenzae 1218, molecule CCC1OC(=O)C(C)C(=O)C(C)C(OC2OC(C)CC(N(C)C)C2O)C(C)(OC)CC(C)C(=O)C(C)C2N(C3CN(S(=O)(=O)c4ccccc4S(C)(=O)=O)C3)C(=O)OC12C (stereo not shown) : ____
Response: 1 µg/mL

* * *

- System: Streptococcus pneumoniae 1095
- Format: cell-based
- MEASUREMENT SETUP: S. pneumoniae 1095 (ermB); microtiter broth dilution
// reported MIC S. pneumo. 1095 per item
Use µg/mL as the unit, but write only the number.

// worked examples, MIC S. pneumo. 1095 included
{"MOLECULE": "CCC1OC(=O)C(C)C(=O)C(C)C(OC2OC(C)CC(N(C)C)C2O)C(C)(OC)CC(C)C(=O)C(C)C2N(CC3CCCN3C(=O)c3cccc4cccnc34)C(=O)OC12C.O=CO (centres unmarked)", "TEST TARGET": "Streptococcus pneumoniae 1095", "MIC S. pneumo. 1095, µg/mL": 0.5}
{"MOLECULE": "CCC1OC(=O)C(C)C(=O)C(C)C(OC2OC(C)CC(N(C)C)C2O)C(C)(OC)CC(C)C(=O)C(C)C2N(CC3CCCN3C(=O)c3ccc4cnccc4n3)C(=O)OC12C (centres unmarked)", "TEST TARGET": "Streptococcus pneumoniae 1095", "MIC S. pneumo. 1095, µg/mL": 2}

Turning now to a further molecule:
Prompt: Fill in: MIC S. pneumo. 1095 of CC[C@H]1OC(=O)[C@H](C)C(=O)[C@H](C)[C@@H](O[C@@H]2O[C@H](C)C[C@H](N(C)C)[C@H]2O)[C@](C)(OC)C[C@@H](C)C(=O)[C@H](C)[C@H]2N(CC3(C)CN(C(=O)c4ccc5ncccc5c4)C3)C(=O)O[C@]12C.O=CO is ___
Response: 8

* * *

- Test system: Streptococcus pneumoniae 1175
- Format: cell-based
- MEASUREMENT SETUP: Streptococcus pneumoniae 1175; microtiter broth dilution
READOUT TYPE: MIC S. pneumo. 1175 (µg/mL)
Unit µg/mL implied. Number only.

Sample answers from the record:
{"MOLECULE": "CCC1OC(=O)C(C)C(=O)C(C)C(OC2OC(C)CC(N(C)C)C2O)C(C)(OC)CC(C)C(=O)C(C)C2N(CC3CN(Cc4c[nH]c5cnccc45)C3)C(=O)OC12C (centres unmarked)", "READOUT TYPE": "MIC S. pneumo. 1175", "MEASUREMENT UNITS": "µg/mL", "RECORDED NUMBER": 1}
{"MOLECULE": "CC[C@H]1OC(=O)[C@H](C)C(=O)[C@H](C)[C@@H](O[C@@H]2O[C@H](C)C[C@H](N(C)C)[C@H]2O)[C@](C)(OC)C[C@@H](C)C(=O)[C@H](C)[C@H]2N(CC3(C)CN(Cc4c[nH]nc4-c4ccccc4)C3)C(=O)O[C@]12C", "READOUT TYPE": "MIC S. pneumo. 1175", "MEASUREMENT UNITS": "µg/mL", "RECORDED NUMBER": 0.25}

Now, please, on to the next molecule.
Prompt: # returns recorded MIC S. pneumo. 1175 (system: Streptococcus pneumoniae 1175) for CCC1OC(=O)C(C)C(=O)C(C)C(OC2OC(C)CC(N(C)C)C2O)C(C)(OC)CC(C)C(=O)C(C)C2N(C3CN(Cc4ccnc5nccnc45)C3)C(=O)OC12C (centres unmarked)
Response: 0.25

* * *

- Tested on: Streptococcus pneumoniae 1175
- Type: cell-based
- MEASUREMENT SETUP: Streptococcus pneumoniae 1175; microtiter broth dilution
READOUT TYPE: MIC S. pneumo. 1175

Use these answered entries as a reference point.
{"MOLECULE": "CCC1OC(=O)C(C)C(=O)C(C)C(OC2OC(C)CC(N(C)C)C2O)C(C)(OC)CC(C)C(=O)C(C)C2N(C3CN(C(c4ccccc4)c4ccncc4)C3)C(=O)OC12C (centres unmarked) [Example 1.69]", "MIC S. pneumo. 1175": "<0.06 µg/mL"}
{"MOLECULE": "CCC1OC(=O)C(C)C(=O)C(C)C(OC2OC(C)CC(N(C)C)C2O)C(C)(OC)CC(C)C(=O)C(C)C2N(C3CN(Cc4c(Cl)cnc5ccccc45)C3)C(=O)OC12C (centres unmarked)", "MIC S. pneumo. 1175": "<0.063 µg/mL"}
{"MOLECULE": "CCC1OC(=O)C(C)C(=O)C(C)C(OC2OC(C)CC(N(C)C)C2O)C(C)(OC)CC(C)C(=O)C(C)C2N(C3CN(S(=O)(=O)c4cccc5c(C#N)cccc45)C3)C(=O)OC12C (centres unmarked)", "MIC S. pneumo. 1175": "<0.06 µg/mL"}
{"MOLECULE": "CCC1OC(=O)C(C)C(=O)C(C)C(OC2OC(C)CC(N(C)C)C2O)C(C)(OC)CC(C)C(=O)C(C)C2N(C3CN(S(=O)(=O)c4ccc(-n5ccnc5)cc4)C3)C(=O)OC12C (centres unmarked)", "MIC S. pneumo. 1175": "<0.06 µg/mL"}

Prompt: Returns the measured MIC S. pneumo. 1175 for the input molecule. Input: CCC1OC(=O)C(C)C(=O)C(C)C(OC2OC(C)CC(N(C)C)C2O)C(C)(OC)CC(C)C(=O)C(C)C2N(C3CN(Cc4ccccc4)C3)C(=O)OC12C (centres unmarked)
Response: 0.12 µg/mL

* * *

- Tested on: Streptococcus pneumoniae 1175
- Type: cell-based
- MEASUREMENT SETUP: Streptococcus pneumoniae 1175; microtiter broth dilution
READOUT TYPE: MIC S. pneumo. 1175 (µg/mL)
Numeric answer only, unit µg/mL assumed.

Prompt: Data request, read-out MIC S. pneumo. 1175, for CCC1OC(=O)C(C)C(=O)C(C)C(OC2OC(C)CC(N(C)C)C2O)C(C)(OC)CC(C)C(=O)C(C)C2N(C3CN(C(=O)c4cccc5[nH]c(C)nc45)C3)C(=O)OC12C (centres unmarked) [Example 2.02]
Response: 2

* * *

MIC H. influenzae 1218 overview
- System: Haemophilus influenzae 1218
- ASSAY PROTOCOL: MIC, microtiter broth dilution (NCCLS M100-S14), H. influenzae 1218 (susceptible)
- Type: cell-based
- MEASUREMENT SETUP: Haemophilus influenzae 1218
Respond with the bare value in µg/mL.

Prompt: Value lookup for MIC H. influenzae 1218; key = CCC1OC(=O)C(C)C(=O)C(C)C(OC2OC(C)CC(N(C)C)C2O)C(C)(OC)CC(C)C(=O)C(C)C2N(C3CN(S(=O)(=O)c4ccc(-n5cccn5)cc4)C3)C(=O)OC12C (stereo not drawn)
Response: 0.25
